# experiment.notes: solvent given as SMILES
# experimental.setup: in C1CCOC1
Outcome: 1 for absorption maximum of at least 400 nm; 0 for anything lower.

given.smiles	assigned.class
O=CC1=C(c2ccc(-c3cccs3)s2)CCC1	0
CN(C)c1ccc2cc3c(cc2c1)OCCN=C3	0
CCCCCOc1cc2oc(=O)c3c4ccc(N(c5ccc(C)cc5)c5ccc(C)cc5)cc4c4ccc5cccc6c(c1)c2c3c4c56	1

[ask] absorption maximum >= 400 nm for COc1cc(OC)cc(C2=C3C(C)=C(I)C(C)=[N+]3[B-](F)(F)n3c(/C=C/c4c[nH]c5ccc([N+](=O)[O-])cc45)c(I)c(C)c32)c1 ?
[reply] 1

[ask] Confirm if absorption maximum reported for the compound Cc1cc(C)c(C2=C3C=C(c4ccc(C(C)(C)C)cc4)C(c4ccc(C(C)(C)C)cc4)=[N+]3[B-](F)(F)n3c2cc(-c2ccc(C(C)(C)C)cc2)c3-c2ccc(C(C)(C)C)cc2)c(C)c1 is 400 nm or above.
[reply] 1

[ask] Would you say CN(C)c1ccc(C2=Nc3sc4c(F)c(F)c(F)c(F)c4[n+]3[B-](F)(F)O2)cc1 shows absorption maximum at minimum 400 nm?
[reply] 1

[ask] Would you say Cn1cccc1-c1ccc(C#N)cc1 shows absorption maximum at minimum 400 nm?
[reply] 0

###

# experiment.notes: solvent given as SMILES
# experimental.setup: in CCOC(C)=O
Consider the following molecules and their measured absorption maximum readings.
Please give a number only; it is taken to be in nm.

[ask] Record request: absorption maximum value, item CCCCC(CC)Cn1c2ccc(C(=C(C#N)C#N)c3ccccc3)cc2c2c(-c3ccc(Br)cc3)c3c(c(-c4ccc(Br)cc4)c21)c1cc(C(=C(C#N)C#N)c2ccccc2)ccc1n3CC(CC)CCCC (stereo not drawn)
[reply] 457

[ask] For the molecule shown here, c1ccc(-c2nc(-c3ccc(-c4ccc(-n5c6ccccc6c6ccccc65)cc4)cn3)oc2-c2ccccc2)cc1 , give the reported absorption maximum.
[reply] 332

[ask] I am curious: what absorption maximum value has been reported for c1ccc(-n2c(-c3ccc(-c4ccc(-c5ccc(-c6nc7c8ccccc8c8ccccc8c7n6-c6ccccc6)cc5)cc4)cc3)nc3ccccc32)cc1 ?
[reply] 339

###

Each item that follows carries a reported absorption maximum.
# experiment.notes: solvent given as SMILES
# experimental.setup: in CCCCCC
// return numeric value only (unit: nm, not printed)

Reference set (3 entries):
> print(dat)
                               given.smiles  endpoint.value
1  COc1ccc2c(c1)CCc1c-2nc(N)c(C#N)c1-c1ccc(Br)cc1             360
2  CCOC(=O)COc1ccc(/C=C/C2=C3c4ccccc4C(c4[nH]c(C)cc4C)=[N+]3[B-](F)(F)n3c(C)cc(C)c32)cc1             608
3  CC(C)[Si](C#Cc1c2cc3ccccc3cc2c(C#C[Si](C(C)C)(C(C)C)C(C)C)c2nc3c(nc12)C1c2ccccc2C3c2ccccc21)(C(C)C)C(C)C             542

Now examine the next entry.
[ask] I am curious: what absorption maximum value has been reported for O=C1c2ccccc2C(=O)N1c1ccc(Cn2cncn2)cc1 ?
[reply] 278

###

# experiment.notes: solvent given as SMILES
# experimental.setup: in CC(C)=O
property.measured: absorption maximum (nm)
Respond with the bare value in nm.

[ask] Requested field: absorption maximum. Item: CCCCCN(c1ccccc1)c1ccc2c(c1)C(CC)(CC)c1cc(/C=C/c3ccc(/C=C(\C#N)C(=O)O)s3)ccc1-2
[reply] 464

[ask] // absorption maximum lookup, key: O=C(N/N=C/c1ccccc1O)c1cccc2ccccc12
[reply] 343

[ask] Returns the measured absorption maximum for the input compound. Input: C(=C\c1ccnc2ccccc12)/c1ccc(/C=C/c2ccnc3ccccc23)cc1
[reply] 371

[ask] // returns reported absorption maximum for input CN(C)CCN(Cc1c2ccccc2cc2ccccc12)c1ccc([N+](=O)[O-])cc1[N+](=O)[O-]
[reply] 392

[ask] Return reported absorption maximum; argument: CNC1=C2C=CC=[N+]2[B-](F)(F)n2cccc21
[reply] 395.5

[ask] Return reported absorption maximum; argument: CCCCCCc1ccsc1-c1ccc(-c2sc(C(=O)O)cc2CCCCCC)s1
[reply] 361

[ask] // returns reported absorption maximum for input CN(C)c1ccc(/C=C/c2cc[n+](C)c3ccccc23)cc1
[reply] 540

[ask] Would you kindly share the measured absorption maximum for c1ccc2nc3cccc(-c4ccc(-n5c6ccccc6c6ccccc65)cc4)c3cc2c1 ?
[reply] 358

###

# experiment.notes: solvent given as SMILES
# experimental.setup: in ClC(Cl)Cl
property.measured: absorption maximum (nm)
Please respond with the number in nm and leave the unit unwritten.

Below: 7 compounds and their reported absorption maximum.
> print(dat)
                               given.smiles  endpoint.value
1  CCCCN1C(=O)c2ccc3c4c(Br)cc5c6c(ccc(c7c(Br)cc(c2c37)C1=O)c64)C(=O)N(CCCC)C5=O             524
2  CC(C)n1c(=O)c2cc3ccc4cccc5ccc(c2c1=O)c3c45             427
3  COc1cc2cc(OC)c(-c3ccc([N+](=O)[O-])cc3)cc2cc1-c1ccc([N+](=O)[O-])cc1             336
4  CCOC(=O)/C=C/C1=C(c2ccc(C)cc2)C2=Nc3c(-c4ccc(C)cc4)c(Br)c(-c4ccc(C)cc4)n3[B-](F)(F)[N+]2=C1c1ccc(C)cc1             666
5  COc1ccc2cc(-c3ccc(C(F)(F)F)cc3)oc(=O)c2c1             327
6  COc1ccc(C#Cc2ccc(C#Cc3ccc(C#Cc4ccccc4C#N)cc3C#N)cc2C#N)cc1             371
7  c1ccc(N2c3ccc4ccccc4c3-c3c4ccccc4nc[n+]3[B-]2(c2ccccc2)c2ccccc2)cc1             541

Turning now to a further record.
[ask] # absorption maximum lookup, item CCOC(=O)c1ccccc1-c1c2ccc(=[N+](CC)CC)cc-2oc2c1c(=O)oc1cc(N(CC)CC)ccc12
[reply] 601

###

# experiment.notes: solvent given as SMILES
# experimental.setup: in C1COCCO1
property.measured: absorption maximum (nm)
Numeric only. Scale: nm

given.smiles	absorption maximum [nm]
CCC1=C(C2=C(C3=C(CC)S(=O)(=O)c4cc(-c5ccc(C(C)=O)s5)ccc43)C(F)(F)C(F)(F)C2(F)F)c2ccc(-c3ccc(C(C)=O)s3)cc2S1(=O)=O	363
CCCCN(CCCC)c1ccc(/C=C/c2ccc3nc(/C=C/c4nc5ccc(/C=C/c6ccc(N(CCCC)CCCC)cc6)cc5n(CCC)c4=O)c(=O)n(CCC)c3c2)cc1	528
CC1(C)CCc2c(c3ccccc3c3nc4c(nc23)c2c(c3ccccc34)OC(C)(C)CC2)O1	434.97
Cc1cc(O)c(C(C)C)cc1/N=C/c1ccc(C(F)(F)F)cc1	361
c1ccc(-c2ccc(-c3ccc(-c4ccccc4)cc3)cc2)cc1	310
CCCCCCCCCCCCCCCCN(CCCCCCCCCCCCCCCC)c1ccc(/C=C/c2cc[n+](Cc3cc(C[n+]4ccc(/C=C/c5ccc(N(CCCCCCCCCCCCCCCC)CCCCCCCCCCCCCCCC)cc5)cc4)cc(C[n+]4ccc(/C=C/c5ccc(N(CCCCCCCCCCCCCCCC)CCCCCCCCCCCCCCCC)cc5)cc4)c3)cc2)cc1	482
N#Cc1ccc2[nH]ccc2c1	274.85

Let us move to another entry and its absorption maximum.
[ask] Which value of absorption maximum has been reported for COC(=O)c1ccc(/C=C2\C=C(c3ccc([N+](=O)[O-])cc3)N(CC(C)C)C2=O)cc1 in the records?
[reply] 442

###

Known absorption maximum of a selection of compounds
# experiment.notes: solvent given as SMILES
# experimental.setup: in CC1CCCO1
Numbers only here, please. The scale is nm.

Illustrative cases are given below, each with its answer.
> print(dat)
                                   compound   property.measured  endpoint.value
1  c1ccc2c(c1)-c1ccccc1C21c2ccccc2-c2ccncc21  absorption maximum             307
2  c1ccc2c(c1)-c1ccccc1C21c2ccccc2-c2cnccc21  absorption maximum             305
3           Cn1c(=O)nc2n(C)c3ccccc3nc-2c1=O  absorption maximum             460
4  CC1=CC(/C=C/c2ccc3ccc4cccc5ccc2c3c45)=[N+]2C1=C(c1ccccc1)c1c(C)cc(/C=C/c3ccc4ccc5cccc6ccc3c4c56)n1[B-]2(F)F  absorption maximum             691
5  c1ccc2c(c1)-c1ccccc1C21c2ccccc2-c2cccnc21  absorption maximum             313

[ask] Value lookup for absorption maximum; key = COC(=O)C(Cc1ccc2oc(-c3ccc(N(C)C)cc3)nc2c1)NC(=O)OC(C)(C)C (stereo unspecified)
[reply] 338.9
